# ASSAY PROCEDURE: Cytotoxicity against human MCF7 cells over expressing TDP1 assessed as reduction in viable cells after 72 hrs by MTT assay
# Assay type: cell-based
# CONDITION: MCF7 cells overexpressing TDP1

MOLECULE | READOUT UNIT | OP | CC50 at 72 h
CC(=O)c1c(O)c(C)c(O)c2c1OC1=CC(=O)/C(=C(/C)Nc3ccc(F)cc3)C(=O)[C@@]12C | µM | = | 22.2
CC(=O)c1c(O)c(C)c(O)c2c1OC1=CC(=O)/C(=C(/C)Nc3ccc(Cl)cc3)C(=O)[C@@]12C | µM | > | 50
CC(=O)c1c(O)c(C)c(O)c2c1OC1=CC(=O)/C(=C(/C)Nc3ccc(Br)cc3)C(=O)[C@]12C | µM | = | 10.6
CC(=O)c1c(O)c(C)c(O)c2c1OC1=CC(=O)/C(=C(/C)Nc3ccccc3)C(=O)[C@@]12C | µM | > | 50
CC(=O)c1c(O)c(C)c(O)c2c1OC1=CC(=O)/C(=C(/C)Nc3ccc(Br)cc3)C(=O)[C@@]12C | µM | = | 39.3
CC(=O)c1c(O)c(C)c(O)c2c1OC1=CC(=O)/C(=C(/C)Nc3cccc(F)c3)C(=O)C12C (stereo not drawn) | µM | = | 35
CC(=O)c1c(O)c(C)c(O)c2c1OC1=CC(=O)/C(=C(/C)Nc3ccc(F)cc3)C(=O)[C@]12C | µM | > | 50
CC(=O)c1c(O)c(C)c(O)c2c1OC1=CC(=O)/C(=C(/C)Nc3cccc(Br)c3)C(=O)C12C (stereo not drawn) | µM | = | 18.1
